Reference source for all entries: patent US12077503B2

- System: Kochia (Kochia scoparia)
- experiment notes: Test A preemergence
- Assay type: in vivo
- experimental conditions: Bassia scoparia, pre-emergence, 240 h, 125 g ai/ha, preemergence; visual rating after approx. 10 d; 0 to 100 scale where 0 is no effect and 100 is complete control; read-out: Plant response rating, Kochia
quantity kind: pest or weed control at 125 g/ha (%)

* O=C1NC[C@H](c2ccc(OC(F)F)cc2)[C@H]1C(=O)Nc1ccccc1F | 80
* O=C1NC[C@H](c2ccc3c(c2)OCO3)[C@H]1C(=O)Nc1ccccc1F | 0
* O=C1NC[C@H](c2ccc(C(F)(F)F)cc2)[C@H]1C(=O)Nc1ccccc1C1CC1 | 0
* CSc1ccccc1NC(=O)[C@H]1C(=O)N(C)CC[C@@H]1c1ccc2c(c1)OC(F)(F)O2 | 0
* CCc1ccc([C@H]2CNC(=S)[C@@H]2C(=O)Nc2ccccc2SC)cc1 | 30
* CN1C[C@H](c2cc(F)c(F)c(F)c2)[C@@H](C(=O)Nc2ccc(F)c(F)c2F)C1=O | 70
* O=C1NC[C@H](c2cccc(C(F)(F)F)c2)[C@H]1C(=O)Nc1ccccc1C1CC1 | 0
* O=C1NC[C@H](c2cc(F)c(F)c(F)c2)[C@H]1C(=O)Nc1ccc(F)c(F)c1F | 70
* CC(F)(F)c1cccc([C@H]2CNC(=O)[C@@H]2C(=O)Nc2ccccc2F)c1 | 80
* Cc1ccc([C@H]2CN(C)C(=O)[C@@H]2C(=O)Nc2cccc(F)c2C)cc1C | 70
* CCc1cc(CC)cc([C@H]2CN(C)C(=O)[C@@H]2C(=O)Nc2ccccc2C(F)(F)F)c1 | 40
